Test system: CHIKV-Rluc
assay-method-text: microbe, parasite or virus in culture
Type: cell-based, Chikungunya virus (CHIKV)
test-settings: Chikungunya virus, BHK, 16 h, read-out: CHIKV-Rluc IC50
pIC50: −log10 of the molar value.
measure-name: pIC50

> print(dat)
                                    compound  value.observed
 1  O=c1cnn([C@@H]2O[C@H](CO)[C@@H](O)[C@H]2O)c(=O)[nH]1            4.53
 2              CN(C)CCCN1c2ccccc2Sc2cccnc21            4.01
 3  OCCN1CCN(CCCN2c3ccccc3Sc3ccc(Cl)cc32)CC1            4.32
 4  CN1CCC(CN2c3ccccc3Sc3ccccc32)C1 (centres unmarked)            4.07
 5         O=c1cc(-c2ccccc2)oc2cc(O)cc(O)c12            3.90
 6          CN(C)CCCN1c2ccccc2Sc2ccc(Cl)cc21            4.40
 7  CCN(CC)C(C)CN1c2ccccc2Sc2ccccc21 (centres unmarked)            4.21
 8  COc1cc(C2Oc3cc([C@H]4Oc5cc(O)cc(O)c5C(=O)[C@@H]4O)ccc3OC2CO)ccc1O (some centres unmarked)            4.03
 9      O=c1cc(-c2ccc(O)cc2)oc2cc(O)cc(O)c12            4.15
10  O=C1C[C@@H](c2ccc(O)cc2)Oc2cc(O)cc(O)c21            3.93
11  CCSc1ccc2c(c1)N(CCCN1CCN(C)CC1)c1ccccc1S2            4.20
